Source listed as patent US20120245137A1.

- TARGET: N-type calcium channel subunits (α1B, α2δ, and β3a) (Homo sapiens, UniProt Q00975)
- EXPERIMENTAL PROTOCOL: Block of Cav2.2 channel, whole cell voltage clamp, manual and PatchXpress
- Type: cell-based
- MEASUREMENT SETUP: Table 5; table follows Assay Example 3 (whole cell voltage clamp / PatchXpress); assay not given
ATTRIBUTE MEASURED: IC50 (nM)

O=C(N[C@H]1CC[C@@H](S(=O)(=O)c2cccc(C(F)(F)F)c2)CC1)c1ccc(OCC(F)(F)F)nc1 [Compound 197]	470
O=C(CN[C@H]1C[C@H](S(=O)(=O)c2cccc(C(F)(F)F)c2)C1)NC1CCCCC1 [Compound 216]	1010

I = CN(C(=O)CN[C@H]1CC[C@H](S(=O)(=O)c2cccc(C(F)(F)F)c2)CC1)C(C)(C)C [Compound 70]
II = O=C(Nc1ccc(Oc2ccc(Cl)cc2)cc1)[C@H]1C[C@H](S(=O)(=O)c2cccc(C(F)(F)F)c2)C1 [Compound 404]
III = O=C(N[C@H]1CC[C@@](F)(S(=O)(=O)c2cccc(C(F)(F)F)c2)CC1)c1ccnc(C(F)(F)F)n1 [Compound 268]
IV = O=C(N[C@H]1CC[C@@](F)(S(=O)(=O)c2cccc(C(F)(F)F)c2)CC1)c1ccc(F)c(Cl)c1 [Compound 238]
Ask: Hello, I need these entries ordered by IC50, highest reading first. Thanks! List labels; respect the requested ordering.
Result: II, I, IV, III
(II: 3330 nM, I: 1220 nM, IV: 90 nM, III: 30 nM)

* * *

- TARGET: human α1H T-type channels (Homo sapiens)
- Sequence (O95180 whole entry): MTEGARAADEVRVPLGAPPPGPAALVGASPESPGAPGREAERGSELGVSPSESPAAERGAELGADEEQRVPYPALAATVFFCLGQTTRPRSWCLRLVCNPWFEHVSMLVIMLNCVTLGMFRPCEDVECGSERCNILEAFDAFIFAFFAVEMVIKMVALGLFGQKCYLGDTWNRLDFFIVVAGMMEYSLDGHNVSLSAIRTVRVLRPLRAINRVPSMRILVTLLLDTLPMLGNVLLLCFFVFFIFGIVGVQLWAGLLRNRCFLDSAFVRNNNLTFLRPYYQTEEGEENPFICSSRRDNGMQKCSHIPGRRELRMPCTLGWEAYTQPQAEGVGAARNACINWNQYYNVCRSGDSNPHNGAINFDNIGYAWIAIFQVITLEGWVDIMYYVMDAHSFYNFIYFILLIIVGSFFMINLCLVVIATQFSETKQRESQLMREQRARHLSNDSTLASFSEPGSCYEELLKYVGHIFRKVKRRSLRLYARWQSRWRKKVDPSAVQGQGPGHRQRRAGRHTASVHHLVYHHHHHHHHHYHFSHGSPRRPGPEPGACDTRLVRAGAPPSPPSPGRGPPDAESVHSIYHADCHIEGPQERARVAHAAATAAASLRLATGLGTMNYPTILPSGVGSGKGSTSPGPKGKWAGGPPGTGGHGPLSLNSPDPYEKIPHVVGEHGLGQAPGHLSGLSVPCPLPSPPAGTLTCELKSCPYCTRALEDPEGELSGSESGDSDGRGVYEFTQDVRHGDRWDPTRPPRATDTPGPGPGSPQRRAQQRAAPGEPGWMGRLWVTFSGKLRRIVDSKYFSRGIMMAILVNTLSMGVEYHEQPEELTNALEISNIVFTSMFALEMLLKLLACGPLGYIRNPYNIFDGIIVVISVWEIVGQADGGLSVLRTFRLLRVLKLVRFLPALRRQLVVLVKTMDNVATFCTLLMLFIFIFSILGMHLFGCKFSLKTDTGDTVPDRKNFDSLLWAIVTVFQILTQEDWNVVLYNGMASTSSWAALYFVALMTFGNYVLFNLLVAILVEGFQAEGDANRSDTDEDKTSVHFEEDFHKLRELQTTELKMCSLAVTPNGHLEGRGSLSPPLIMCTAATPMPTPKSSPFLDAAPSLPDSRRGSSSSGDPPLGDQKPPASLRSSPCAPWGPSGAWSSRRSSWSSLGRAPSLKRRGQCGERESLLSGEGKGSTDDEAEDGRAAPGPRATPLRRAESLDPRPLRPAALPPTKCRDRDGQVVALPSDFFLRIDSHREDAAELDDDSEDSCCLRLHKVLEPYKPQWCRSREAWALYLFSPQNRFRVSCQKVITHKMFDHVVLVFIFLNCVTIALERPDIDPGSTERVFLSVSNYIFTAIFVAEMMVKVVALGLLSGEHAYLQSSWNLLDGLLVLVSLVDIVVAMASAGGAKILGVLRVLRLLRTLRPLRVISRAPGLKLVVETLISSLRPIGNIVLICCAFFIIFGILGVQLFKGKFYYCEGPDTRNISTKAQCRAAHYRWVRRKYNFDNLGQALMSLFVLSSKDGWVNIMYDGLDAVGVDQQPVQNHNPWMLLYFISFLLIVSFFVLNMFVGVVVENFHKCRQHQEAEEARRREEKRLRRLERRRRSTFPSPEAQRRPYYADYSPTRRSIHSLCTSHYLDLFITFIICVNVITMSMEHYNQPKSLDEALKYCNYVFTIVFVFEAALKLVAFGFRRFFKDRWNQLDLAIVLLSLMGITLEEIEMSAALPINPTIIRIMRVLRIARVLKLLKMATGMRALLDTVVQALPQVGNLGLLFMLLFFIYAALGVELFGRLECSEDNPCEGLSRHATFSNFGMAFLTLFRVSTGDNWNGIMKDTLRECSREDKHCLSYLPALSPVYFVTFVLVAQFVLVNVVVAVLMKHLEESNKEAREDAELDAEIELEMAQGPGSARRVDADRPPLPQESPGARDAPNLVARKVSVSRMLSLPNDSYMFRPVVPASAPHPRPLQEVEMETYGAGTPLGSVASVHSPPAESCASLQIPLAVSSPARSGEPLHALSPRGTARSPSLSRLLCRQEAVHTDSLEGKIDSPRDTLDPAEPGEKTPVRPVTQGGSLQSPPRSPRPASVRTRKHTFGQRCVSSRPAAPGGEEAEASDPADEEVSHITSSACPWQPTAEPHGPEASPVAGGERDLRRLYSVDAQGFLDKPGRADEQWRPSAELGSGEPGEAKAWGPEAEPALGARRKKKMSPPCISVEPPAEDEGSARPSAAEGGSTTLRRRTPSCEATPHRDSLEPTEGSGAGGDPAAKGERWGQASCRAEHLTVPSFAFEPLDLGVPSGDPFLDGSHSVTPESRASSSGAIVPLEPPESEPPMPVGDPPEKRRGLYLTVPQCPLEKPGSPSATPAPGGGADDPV
- EXPERIMENTAL PROTOCOL: T-type calcium channel block, whole cell patch clamp, α1H
- MEASUREMENT SETUP: HEK cells stably expressing human α1H; mainly non-inactivated protocol; values above 10,000 nM represented as 10000
pIC50: −log10 of the molar value.
ATTRIBUTE MEASURED: pIC50

O=C(NC[C@H]1C[C@@H](S(=O)(=O)c2cccc(C(F)(F)F)c2)C1)c1ccc(F)c(Cl)c1	6.52

I = Cc1noc(C)c1S(=O)(=O)NC[C@H]1C[C@H](S(=O)(=O)c2cccc(C(F)(F)F)c2)C1
II = O=C(Nc1cc(C(F)(F)F)ccn1)[C@H]1C[C@H](S(=O)(=O)c2cccc(C(F)(F)F)c2)C1
Ask: Quick one: lower pIC50, I or II ? # answer = label of selected item
Result: II
(II: 5.44, I: 5.86)

a = O=C1c2ccc(C(F)(F)F)nc2CN1[C@H]1CC[C@@](F)(S(=O)(=O)c2cccc(C(F)(F)F)c2)CC1
b = CC(C)(CNS(=O)(=O)c1ccccc1C(F)(F)F)S(=O)(=O)c1cccc(C(F)(F)F)c1
Ask: Which of the two items, a and b , has the greater recorded pIC50? Answer = label.
Result: a
(a: 6.24, b: 5.45)

* * *

- TARGET: T-type calcium channel (Homo sapiens, UniProt O43497)
- Sequence (O43497 whole entry): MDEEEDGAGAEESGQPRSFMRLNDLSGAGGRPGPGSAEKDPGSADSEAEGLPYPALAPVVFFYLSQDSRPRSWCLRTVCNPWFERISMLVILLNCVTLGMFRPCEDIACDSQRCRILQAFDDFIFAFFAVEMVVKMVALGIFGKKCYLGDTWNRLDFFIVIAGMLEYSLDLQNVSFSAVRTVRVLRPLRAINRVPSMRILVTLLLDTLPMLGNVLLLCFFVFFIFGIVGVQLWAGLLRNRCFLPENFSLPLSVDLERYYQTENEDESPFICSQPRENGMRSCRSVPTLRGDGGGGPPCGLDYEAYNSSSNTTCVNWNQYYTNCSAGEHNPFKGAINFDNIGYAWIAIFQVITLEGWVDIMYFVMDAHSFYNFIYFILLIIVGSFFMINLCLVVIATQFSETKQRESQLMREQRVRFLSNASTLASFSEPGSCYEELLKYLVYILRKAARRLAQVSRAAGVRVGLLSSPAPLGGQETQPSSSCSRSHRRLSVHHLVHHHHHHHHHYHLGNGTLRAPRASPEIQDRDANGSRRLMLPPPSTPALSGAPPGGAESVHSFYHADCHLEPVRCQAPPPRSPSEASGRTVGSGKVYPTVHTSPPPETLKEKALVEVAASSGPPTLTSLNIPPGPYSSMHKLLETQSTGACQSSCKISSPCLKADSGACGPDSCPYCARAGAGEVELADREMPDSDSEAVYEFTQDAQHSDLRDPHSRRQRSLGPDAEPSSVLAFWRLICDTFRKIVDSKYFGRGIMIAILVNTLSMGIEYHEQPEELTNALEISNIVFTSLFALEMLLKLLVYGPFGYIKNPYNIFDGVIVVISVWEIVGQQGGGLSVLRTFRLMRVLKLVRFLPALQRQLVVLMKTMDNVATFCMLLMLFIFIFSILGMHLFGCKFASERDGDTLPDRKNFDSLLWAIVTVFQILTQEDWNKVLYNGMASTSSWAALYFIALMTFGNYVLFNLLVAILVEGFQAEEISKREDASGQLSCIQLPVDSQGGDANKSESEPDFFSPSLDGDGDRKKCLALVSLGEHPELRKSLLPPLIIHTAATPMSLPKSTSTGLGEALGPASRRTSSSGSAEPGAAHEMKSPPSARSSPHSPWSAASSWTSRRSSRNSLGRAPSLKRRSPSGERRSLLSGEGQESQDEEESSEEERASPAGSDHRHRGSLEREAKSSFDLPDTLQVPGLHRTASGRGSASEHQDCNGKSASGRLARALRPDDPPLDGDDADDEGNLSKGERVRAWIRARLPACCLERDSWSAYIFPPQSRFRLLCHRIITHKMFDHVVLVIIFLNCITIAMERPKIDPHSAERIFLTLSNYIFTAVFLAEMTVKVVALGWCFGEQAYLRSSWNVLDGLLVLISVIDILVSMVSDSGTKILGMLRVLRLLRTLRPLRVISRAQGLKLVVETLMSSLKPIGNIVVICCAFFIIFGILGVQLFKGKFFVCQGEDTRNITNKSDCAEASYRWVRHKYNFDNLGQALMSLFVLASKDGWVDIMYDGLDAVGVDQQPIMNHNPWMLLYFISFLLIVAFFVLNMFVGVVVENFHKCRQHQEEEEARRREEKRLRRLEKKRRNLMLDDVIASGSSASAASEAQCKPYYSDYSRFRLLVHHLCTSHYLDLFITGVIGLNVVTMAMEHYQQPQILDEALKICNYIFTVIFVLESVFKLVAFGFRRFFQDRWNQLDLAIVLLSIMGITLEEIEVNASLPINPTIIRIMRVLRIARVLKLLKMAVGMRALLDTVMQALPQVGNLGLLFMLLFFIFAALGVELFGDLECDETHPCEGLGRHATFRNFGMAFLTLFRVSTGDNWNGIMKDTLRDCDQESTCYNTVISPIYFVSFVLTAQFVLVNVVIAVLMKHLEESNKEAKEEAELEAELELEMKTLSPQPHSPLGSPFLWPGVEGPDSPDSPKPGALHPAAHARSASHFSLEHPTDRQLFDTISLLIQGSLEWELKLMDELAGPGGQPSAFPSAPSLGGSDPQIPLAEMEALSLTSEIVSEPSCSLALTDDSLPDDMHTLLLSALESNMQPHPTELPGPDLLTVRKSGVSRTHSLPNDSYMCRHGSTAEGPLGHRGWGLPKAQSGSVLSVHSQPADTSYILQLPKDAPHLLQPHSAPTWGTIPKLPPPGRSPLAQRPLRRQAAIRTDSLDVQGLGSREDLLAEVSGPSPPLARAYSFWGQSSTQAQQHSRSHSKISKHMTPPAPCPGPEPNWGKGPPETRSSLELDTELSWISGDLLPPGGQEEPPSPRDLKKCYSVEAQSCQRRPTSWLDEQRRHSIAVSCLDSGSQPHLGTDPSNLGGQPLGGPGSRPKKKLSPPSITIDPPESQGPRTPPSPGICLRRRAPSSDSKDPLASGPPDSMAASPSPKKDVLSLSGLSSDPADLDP
- EXPERIMENTAL PROTOCOL: T-type channel blocking, FLIPR data (Table 6)
- MEASUREMENT SETUP: CAv3.1
pIC50: −log10 of the molar value.
ATTRIBUTE MEASURED: pIC50

1 = CC(C)([C@H]1C[C@@H](CNC(=O)c2ccc(Cl)c(OC(F)(F)F)c2)C1)S(=O)(=O)c1cccc(C(F)(F)F)c1
2 = CC(C)([C@H]1C[C@H](NC(=O)c2ccc(Cl)c(F)c2)C1)S(=O)(=O)c1cc(F)cc(C(F)(F)F)c1
Ask: Just curious, which one has the larger pIC50 reading, 1 or 2 ? Give the chosen item's label as your response.
Result: 1
